System Name: human M4 muscarinic acetylcholine receptor (Homo sapiens, UniProt P08173)
Measurement Notes: human FLIPR-based M4 PAM assay (Ca2+ mobilization, CHO-K1 cells with human M4 receptor and Gαqi5)
Experimental Parameters: acetylcholine at 20% of maximum response, read-out: M4 PAM IP
pEC50: −log10 of the molar value.
Recorded Endpoint: pEC50

1) COCc1ccc(OC2CCN(c3nc4c(cc3C)C(=O)NC4)CC2)cc1 :: 7.17
2) Cc1cc2c(nc1N1CCC(Oc3ccc(O[C@H](C)CO)nc3)CC1)CNC2=O [Example 143B] :: 6.93
3) Cc1cc2c(nc1N1CC[C@@H](Oc3cccnc3)[C@@H](F)C1)CNC2=O (single isomer, unassigned) :: 7.05
4) CCc1cc2c(nc1N1CCC(OCC3(C)CC3)CC1)CN(CCO)C2=O :: 7.06
5) CCc1cc2c(nc1N1CCC(Oc3ccc4c(c3)COCC4)CC1)[C@@H](CO)N(C)C2=O :: 7.07

---

System Name: human M4 muscarinic acetylcholine receptor (Homo sapiens, UniProt P08173)
Construct: expressed in transfected cells; host or cells: CHO-K1
Sequence (P08173 1-479): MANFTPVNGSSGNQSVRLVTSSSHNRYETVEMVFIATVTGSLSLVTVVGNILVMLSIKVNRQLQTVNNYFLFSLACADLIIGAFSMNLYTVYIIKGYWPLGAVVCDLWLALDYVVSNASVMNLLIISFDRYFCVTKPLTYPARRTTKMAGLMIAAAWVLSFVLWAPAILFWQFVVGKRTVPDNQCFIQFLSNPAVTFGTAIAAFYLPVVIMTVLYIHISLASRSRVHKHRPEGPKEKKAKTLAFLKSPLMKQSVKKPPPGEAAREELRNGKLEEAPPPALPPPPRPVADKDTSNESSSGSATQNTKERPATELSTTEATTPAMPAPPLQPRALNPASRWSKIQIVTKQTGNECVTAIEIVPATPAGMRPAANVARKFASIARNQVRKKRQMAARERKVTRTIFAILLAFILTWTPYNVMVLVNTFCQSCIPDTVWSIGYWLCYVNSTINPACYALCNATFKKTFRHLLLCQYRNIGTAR
Measurement Notes: human FLIPR-based M4 PAM assay (Ca2+ mobilization, CHO-K1 cells with human M4 receptor and Gαqi5)
Type: cell-based
Experimental Parameters: acetylcholine at 20% of maximum response, read-out: M4 PAM IP
Method: In a typical experiment the M4 muscarinic acetylcholine receptor modulating activity of the compounds of the present invention was determined in accordance with the following experimental method. […] Next, 10 uL of acetylcholine is added (final concentration calculated so as to achieve 20% of the maximum acetycholine response), and the fluorescence reading is continued for 3.5 min. […]
pEC50: −log10 of the molar value.
Recorded Endpoint: pEC50

1. Cc1cc2c(nc1N1CCC(Oc3cc(F)c4[nH]ncc4c3)CC1)CNC2=O [Example 317] :: 6.90

P. CNc1ccc(OC2CCN(c3nc4c(cc3C)C(=O)NC4)CC2)cn1 [Example 320]
Q. COC(=O)c1c(C)c(N2CCC(Oc3ccc(OC)nc3)CC2)nc2c1C(=O)NC2 [Example 190]
R. COc1ccc(OC2CCN(c3nc4c(cc3C)C(=O)N(CC3COC3)C4CC3COC3)CC2)cn1 (stereo not shown) [Example 255A]
Prompt line: // ranking: key=pEC50, reverse=True Provide the ranking by listing each label in its place in the requested order.
Response line: P, R, Q
(P: 6.82, R: 6.10, Q: 5.25)

I. COc1ccc(OC2CCN(c3nc4c(cc3C)C(=O)N(C)[C@]4(C)CO)CC2)cn1 (single isomer, unassigned) [Example 287B]
II. CCc1cc2c(nc1N1CC[C@@H](Oc3cccnc3)[C@@H](F)C1)CNC2=O (single isomer, unassigned) [Example 216]
III. Cc1cc2c(nc1N1CCC(Oc3cccc(C#N)c3)CC1)[C@@H](C)N(C)C2=O [Example 28A]
IV. Cc1cc2c(nc1N1CCC(Oc3ccc4c(c3)nc(C)n4C)CC1)CNC2=O [Example 209]
Prompt line: Task for the reader: rank each entry by its pEC50, from the minimum upward. Provide the labels, sequenced as the question asks.
Response line: IV, II, I, III

---

System Name: UniProt P08173
Measurement Notes: human FLIPR-based M4 PAM assay (Ca2+ mobilization, CHO-K1 cells with human M4 receptor and Gαqi5)
Experimental Parameters: acetylcholine at 20% of maximum response, read-out: M4 PAM IP
Recorded Endpoint: EC50 (nM)

1) Cc1cc2c(nc1N1CCC(Oc3ccc4c(c3)C(C)(C)CO4)CC1)CNC2=O [Example 130] :: 105
2) Cc1cc2c(nc1N1CCC(Oc3ccc(Cl)cc3)CC1)CNC2=O [Example 76] :: 80
3) COCc1cccc(OC2CCN(c3nc4c(cc3C)C(=O)NC4)CC2)c1 [Example 57] :: 61
4) Cc1cc2c(nc1N1CCC(Oc3ccc4c(c3)CCC(=O)N4)CC1)CNC2=O [Example 118] :: 141
5) Cc1c(N2CCC(Oc3ccc4c(c3)COCC4)CC2)nc2c(c1C)C(=O)N(CCO)C2 [Example 268B] :: 63

P. Cc1c(N2CCC(OCC3CCC3)CC2)nc2c(c1C)C(=O)N(CCO)C2 [Example 267B]
Q. Cc1cc2c(nc1N1CCC(Oc3ccc4c(c3)CCC4)CC1)CNC2=O [Example 44]
Prompt line: Lowest EC50? choose P or Q State your choice using its label.
Response line: P

---

System Name: human M4 muscarinic acetylcholine receptor (Homo sapiens)
Measurement Notes: human FLIPR-based M4 PAM assay (Ca2+ mobilization, CHO-K1 cells with human M4 receptor and Gαqi5)
Experimental Parameters: acetylcholine at 20% of maximum response, read-out: M4 PAM IP
pEC50: −log10 of the molar value.
Recorded Endpoint: pEC50

1. COc1ccc(O[C@@H]2C[C@H]3CC[C@@H](C2)N3c2nc3c(cc2C)C(=O)NC3)cn1 :: 6.13

1. Cc1cc2c(nc1N1CCC(Oc3ccnc(OC(F)(F)F)c3)CC1)CNC2=O
2. Cc1c(N2CCC(Oc3ccc4c(c3)CCOC4)CC2)nc2c(c1C)C(=O)N(C)[C@H]2CO
Prompt line: Between item 1 and item 2 , which reported pEC50 is smaller? Record your answer as the label of the chosen record.
Response line: 2

---

System Name: human M4 muscarinic acetylcholine receptor (Homo sapiens)
Measurement Notes: human FLIPR-based M4 PAM assay (Ca2+ mobilization, CHO-K1 cells with human M4 receptor and Gαqi5)
Experimental Parameters: acetylcholine at 20% of maximum response, read-out: M4 PAM IP
Recorded Endpoint: EC50 (nM)

Please review the entries below; each comes with its answer.
1) CCc1cc2c(nc1N1CC[C@@H](Oc3cccnc3)[C@@H](F)C1)CNC2=O (single isomer, unassigned) [Example 215] :: 304
2) Cc1cc2c(nc1N1CCC(OCC3(F)CC3)CC1)CNC2=O [Example 64A] :: 192
3) Cc1cc2c(nc1N1CCC(OC[C@]3(C)C[C@@H]3F)CC1)CNC2=O (single isomer, unassigned) [Example 160A] :: 627
4) Cc1c(N2CCC(Oc3ccc4c(c3)COC4)CC2)nc2c(c1C)C(=O)N(C)[C@H]2CO (single isomer, unassigned) [Example 337B] :: 867

A. Cc1cc2c(nc1N1CCC(OCC3(C)CC3C#N)CC1)CNC2=O (single isomer, unassigned) [Example 191A]
B. Cc1c(N2CC[C@@H](Oc3cnc4c(c3)COC4)[C@@H](F)C2)nc2c(c1C)C(=O)NC2 [Example 165A]
Prompt line: Between A and B , whose recorded EC50 is greater? // caller expects the label of the chosen entry
Response line: A

---

System Name: human M4 muscarinic acetylcholine receptor (Homo sapiens)
Measurement Notes: human FLIPR-based M4 PAM assay (Ca2+ mobilization, CHO-K1 cells with human M4 receptor and Gαqi5)
Experimental Parameters: acetylcholine at 20% of maximum response, read-out: M4 PAM IP
Protocol: In a typical experiment the M4 muscarinic acetylcholine receptor modulating activity of the compounds of the present invention was determined in accordance with the following experimental method. […] Next, 10 uL of acetylcholine is added (final concentration calculated so as to achieve 20% of the maximum acetycholine response), and the fluorescence reading is continued for 3.5 min. […]
pEC50: −log10 of the molar value.
Recorded Endpoint: pEC50

Some compounds with recorded pEC50:
1. Cc1cc2c(nc1N1CCC(Oc3cccc(S(C)(=O)=O)c3)CC1)CNC2=O [Example 47A] :: 6.54
2. CCc1cc2c(nc1N1CCC(OCC3(C)CC3(F)F)CC1)CNC2=O (centres unmarked) [Example 187A] :: 6.53
3. CO[C@@H]1Cc2ccc(OC3CCN(c4nc5c(cc4C)C(=O)NC5)CC3)cc2C1 [Example 162A] :: 7.23
4. Cc1c(N2CC[C@@H](OCC3(C)CC3)[C@H](F)C2)nc2c(c1C)C(=O)N(CCO)C2 [Example 267F] :: 7.77
5. COc1ccc(OC2CCN(c3nc4c(cc3C)C(=O)N(C)[C@@H]4CO)CC2)cn1 (single isomer, unassigned) [Example 273B] :: 7.64

A. Cc1cc2c(nc1N1CCC(Oc3ccn4ccnc4c3)CC1)CNC2=O [Example 140]
B. Cc1cc2c(nc1N1CCC(Oc3ccc4c(cnn4C)c3)CC1)CN(CO)C2=O [Example 272]
Prompt line: Of the two listed items, A and B , which carries the larger pEC50 figure? Which one? Tell me its label.
Response line: B
(B: 6.40, A: 5.33)

a. Cc1c(N2CC[C@@H](Oc3ccc4c(c3)COC4)[C@@H](F)C2)nc2c(c1C)C(=O)NC2 [Example 225]
b. CCOCCOC1CCN(c2nc3c(cc2C)C(=O)NC3)CC1 [Example 54]
Prompt line: Hey, which is lower on measured pEC50, a or b ? Kindly give the label for the entry you pick.
Response line: b
(b: 5.06, a: 7.72)

P. CCN1Cc2nc(N3CCC(Oc4ccc5c(c4)COC5)CC3)c(C)cc2C1=O [Example 244A]
Q. Cc1cc2c(nc1N1CCC(Oc3ccc4c(c3)CC(O)C4)CC1)CNC2=O (centres unmarked) [Example 324]
R. Cc1c(N2CCC(OCC3CCC3)CC2)nc2c(c1C)C(=O)NC2 [Example 330]
Prompt line: Ascending by pEC50, please: list the compounds accordingly. Return the labels ranked in the requested order, please.
Response line: R, P, Q
(R: 7.29, P: 7.55, Q: 7.77)
